Origin of the recorded values: PubChem BioAssay (NCI)

# System: SR leukemia
# PROTOCOL SUMMARY: NCI-60 one-dose screen, 48 h (100 = growth as untreated, 0 = no growth, -100 = all killed)
# STUDY CONDITIONS: 10 µM unless noted
The panel holds about 83,000 compounds, 20% with a hit somewhere; the sample as a whole holds those more often.
Class Satisfied: growth at least 50%. Class Not satisfied: growth below 50%.

| MOLECULE | CLASS |
| --- | --- |
| COc1ccc(S(=O)(=O)N(Cc2ccc3c(n2)C=CC(C)(C)O3)C2CCC2)cc1OC | Not satisfied |
| COc1ccc(C2Nc3ncnc(N)c3N=C3c4ccccc4C(=O)C32)cc1 (configuration not stated) | Not satisfied |
| NNC(=O)CNC(=O)Nc1n[nH]c(=S)s1 | Satisfied |
| c1ccc2cc3c(Nc4ccc(N5CCOCC5)cc4)ccnc3cc2c1 | Satisfied |
| CCOc1ccccc1CN1CCc2nc3cc(C(C)(C)C)[nH]n3c(=O)c2C1 | Satisfied |
| COc1cc(/C=C/C(=O)N2c3ccccc3CC2C)c(OC)c2c1OCO2 (configuration not stated) | Satisfied |
| CC(C)[C@H](NC(=O)Cn1cc(C(=O)O)nn1)C(=O)O | Satisfied |
| COc1ccc(/C(C#N)=C/c2nc3c(N4CCOCC4)nc(Cl)nc3n2C)cc1OC | Not satisfied |
| C=C1C(=O)O[C@H]2[C@H]1CC/C(COC(=O)/C=C\C(=O)O)=C\CC[C@@]1(C)O[C@@H]21 | Satisfied |
| O=C1Nc2ccccc2/C1=C/c1ccc[nH]1 | Satisfied |
| CC1CCCCN1CCCNC(=O)c1ccc2c(c1)sc1nc(-c3ccc(F)cc3)cn12 (configuration not stated) | Satisfied |

----------
# Test system: U251 CNS
# PROTOCOL SUMMARY: NCI-60 one-dose screen, 48 h (100 = growth as untreated, 0 = no growth, -100 = all killed)
# STUDY CONDITIONS: 10 µM unless noted
This is part of a sample that, as a whole, favours compounds with a hit. Of some 83,000 tested, about 20% had one in any assay.
Listing of recorded growth by entry.
ENDPOINT LABEL: growth (%)

| SMILES CODE | NUMERIC VALUE |
| --- | --- |
| O=C1c2cc(I)ccc2Oc2cc([N+](=O)[O-])ccc2N1c1ccc(Cl)cc1F | 79.3 |
| Nc1ccc(-c2nc3cc(Oc4ccc(Oc5ccc6[nH]c(-c7ccc(N)cc7)nc6c5)cc4)ccc3[nH]2)cc1 | 96.6 |
| COc1cc(C(=O)Nc2ccc(-c3nc4ccccc4[nH]3)cc2)cc(OC)c1OC | 25 |
| COC(=O)/C(CCC=C(C)C)=C1\[C@@H](OC(C)=O)C[C@@]2(C)[C@H]1C[C@@H](O)[C@H]1[C@@]3(C)CC[C@H](NCc4ccccc4)[C@@H](C)[C@@H]3CC[C@@]12C | 49.2 |

----------
# Tested on: OVCAR-8 ovarian
# PROTOCOL SUMMARY: NCI-60 one-dose screen, 48 h
# STUDY CONDITIONS: 10 µM unless noted
This is part of a sample that, as a whole, favours compounds with a hit. Of some 83,000 tested, about 20% had one in any assay. The source made the active and inactive calls. How the source made its calls: active means growth percent below 10; inactive means the rest.
Classes used: active, inactive

| COMPOUND | TARGET OR SYSTEM | CLASS |
| --- | --- | --- |
| COc1cc(/C=C2\CN(S(=O)(=O)c3ccccc3)C/C(=C\c3cc(CN4CCCC4)c(O)c(OC)c3)C2=O)cc(CN2CCCC2)c1O | OVCAR-8 ovarian | inactive |
| N#CC(C#N)=Cc1c(-c2ccccc2)[nH]c2ccccc12 | OVCAR-8 ovarian | inactive |
| CC(C)C[C@H](C(=O)N[C@H](C(N)=O)C(C)C)N1CC=CCN(OCc2ccccc2)S1(=O)=O | OVCAR-8 ovarian | inactive |
| O=C(c1nc2ccccc2[nH]1)C1C(c2ccc([N+](=O)[O-])cc2)C2CC3CCCCC3N2[C@@]12C(=O)Nc1cc(Cl)ccc12 (some centres undefined) | OVCAR-8 ovarian | inactive |
| COc1cc(OC)cc(N2C(=O)N(Cc3ccc(C(C)(C)C)cc3)c3ccccc3S2(=O)=O)c1 | OVCAR-8 ovarian | inactive |
| NCCOc1ncccc1/C=C1\c2ccccc2-c2ccc([N+](=O)[O-])cc21 | OVCAR-8 ovarian | active |
| COc1cccc(/C=C/C(=O)c2c(C)nc3ccccc3c2/C=C/c2ccccc2)c1OC | OVCAR-8 ovarian | inactive |
| COc1ccc(-c2nsc3c2NC(=O)CC3c2ccsc2)cc1 (centres undefined) | OVCAR-8 ovarian | inactive |
| CN1C(=O)N(C)C2C1NN=c1s/c(=C\c3ccc(Cl)cc3Cl)c(=O)n12 (centres undefined) | OVCAR-8 ovarian | inactive |
